target: T1, SWSAP1 K18A (Walker A);hSWS1 (Homo sapiens;Homo sapiens, UniProt Q6NVH7;Q19AV6 22-250;1-140, K39A|)
T1 sequence 1: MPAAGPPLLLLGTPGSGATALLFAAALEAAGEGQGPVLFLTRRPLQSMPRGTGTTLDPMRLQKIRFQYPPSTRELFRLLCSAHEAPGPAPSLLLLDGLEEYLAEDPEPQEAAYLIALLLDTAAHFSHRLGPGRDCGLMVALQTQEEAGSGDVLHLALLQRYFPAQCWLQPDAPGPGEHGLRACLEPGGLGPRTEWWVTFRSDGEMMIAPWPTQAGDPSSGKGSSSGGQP
T1 sequence 2: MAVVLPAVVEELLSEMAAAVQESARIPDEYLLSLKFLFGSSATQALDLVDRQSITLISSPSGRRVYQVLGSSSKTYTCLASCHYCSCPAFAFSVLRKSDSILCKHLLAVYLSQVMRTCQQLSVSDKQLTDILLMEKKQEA
assay: fluorescence polarization; 2 mM ADP; FPA: 5 nM 6-FAM DNA, 37 C, 2 mM nucleotide where stated (buffer not given in material); EMSA: 0.05 uM 6-FAM DNA, 5%/15% native PAGE; RAD51 filaments: 2 mM ATP
protocol conditions: protein: recombinant;recombinant; tags: N-terminal 6xHis-TEV, cleaved;none; copies: 1;1; label: 3' 6-FAM on strand 1; blunt
parameter measured: Kd (µM)
The response must be a number in µM with no trailing unit.

The binder identified as ds39 (dsDNA) DNA 1: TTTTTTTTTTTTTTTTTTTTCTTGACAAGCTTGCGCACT DNA 2: AGTGCGCAAGCTTGTCAAGAAAAAAAAAAAAAAAAAAAA registered its Kd at 8.73
